tested on: L1210 leukemia ip in BDF1 mice, survival T/C; experiment: NCI In Vivo Anticancer Drug Screen. Data for tumor model L1210 Leukemia (intraperitoneal) in B6D2F1 (BDF1) mice; conditions: endpoint: mean survival time; dose: 200.0 mg/kg/injection; schedule: Q04DX003 (ip); vehicle: saline; higher = longer survival
Toxic doses and inconclusive results are not listed.
parameter: T/C

[in] Recorded T/C for `Cc1cc([NH-])c([NH-])cc1C.[Cl][Pt+2][Cl]` , please?
[out] 93 % of control

Others:
[in] Recorded T/C for CC1CC(C(C)CC(=O)O)C(=O)O1 (configuration not stated) , please?
[out] 108 % of control

[in] Now the compound `O=c1[nH]c(=O)ss1`
[out] 94 % of control

[in] Now the compound O=[N+]([O-])CC(O)C(O)C(O)C(O)CO (configuration not stated)
[out] 102 % of control

[in] Now the compound `CNC(=O)n1ncnc1N`
[out] 96 % of control

[in] Now the compound `CC12OC3C4C(=O)OC1C1OC4(C)C3C(=O)OC12`
[out] 97 % of control

[in] Now the compound NC(Cc1ccc([N+](=O)[O-])cc1)C(=O)O (configuration not stated)
[out] 101 % of control
